# Tested on: NCI-H522 lung
# PROTOCOL TEXT: NCI tumour cell line growth inhibition, 48 h
log10 TGI values, listed per item
OBSERVABLE: log10 TGI (log10 of the value in µM)

>  <COMPOUND>
Nc1c(-c2ccc(Cl)c(Cl)c2)c2ccc([N+](=O)[O-])cc2c(=O)n1-c1nc2ccccc2s1

>  <log10 TGI>
0.48

$$$$
>  <COMPOUND>
CC1=C(Cl)C=CP(=O)(Oc2ccccc2)C1 (configuration not stated)

>  <log10 TGI>
1.48

$$$$
>  <COMPOUND>
CC(C)=CCC[C@@H](C)c1c(O)c(O)c(C)c2nccnc12

>  <log10 TGI>
1.37

$$$$
>  <COMPOUND>
CCCOc1cc2ccccc2cc1C(=O)Nc1nc(N)c2c(ccc3nccc32)[nH]1

>  <log10 TGI>
-1.37

$$$$
>  <COMPOUND>
O=C1CCCCC1CN1CCCCC1 (configuration not stated)

>  <log10 TGI>
0.65

$$$$

###

# System: SF-295 CNS
# PROTOCOL TEXT: NCI tumour cell line growth inhibition, 48 h
Recorded TGI by entry

>  <MOLECULE>
CCOC(=O)N1CCN(Cc2cc(=O)n3ccc(C)cc3n2)CC1

>  <EXPERIMENTAL SYSTEM>
SF-295 CNS

>  <TGI>
> 100 µM

$$$$
>  <MOLECULE>
O=C(Oc1ccc(Cl)cc1)c1ccccc1Nc1ccnc(C(F)(F)F)c1

>  <EXPERIMENTAL SYSTEM>
SF-295 CNS

>  <TGI>
> 100 µM

$$$$
>  <MOLECULE>
CCc1c(OC(C)=O)c2c(NC3OCC(OC(C)=O)C(OC(C)=O)C3OC(C)=O)nc(SC)nc2oc1=O (stereo unspecified)

>  <EXPERIMENTAL SYSTEM>
SF-295 CNS

>  <TGI>
> 100 µM

$$$$
>  <MOLECULE>
O=C1CCC2(c3ccc(Cl)cc3)Nc3ccncc3N12 (stereo unspecified)

>  <EXPERIMENTAL SYSTEM>
SF-295 CNS

>  <TGI>
> 10 µM

$$$$
>  <MOLECULE>
CCCCCCCCCCCCCCCC[N+](C)(C)Cc1ccccc1

>  <EXPERIMENTAL SYSTEM>
SF-295 CNS

>  <TGI>
3.29 µM

$$$$
>  <MOLECULE>
C[C@]12CCC3c4ccc(O)cc4CCC3C1CC[C@@]2(O)CNC(=O)/C=C/c1ccc(O)c(O)c1 (stereo partly specified)

>  <EXPERIMENTAL SYSTEM>
SF-295 CNS

>  <TGI>
22.1 µM

$$$$

###

# Tested on: OVCAR-4 ovarian
# PROTOCOL TEXT: NCI tumour cell line growth inhibition, 48 h

>  <COMPOUND>
CCCCCCCCCCCCC(O)c1ccc(C#CCCCCCCCCCO)o1 (stereo unspecified)

>  <EXPERIMENTAL SYSTEM>
OVCAR-4 ovarian

>  <GI50>
45100 nM

$$$$
>  <COMPOUND>
COc1ccc2[nH]cc(/C=C(/C)c3ccncc3)c2c1

>  <EXPERIMENTAL SYSTEM>
OVCAR-4 ovarian

>  <GI50>
17900 nM

$$$$
>  <COMPOUND>
CCCCCCCCCCn1cc[n+](C)c1

>  <EXPERIMENTAL SYSTEM>
OVCAR-4 ovarian

>  <GI50>
1310 nM

$$$$
>  <COMPOUND>
O=C(/C(=C/c1ccc([N+](=O)[O-])cc1)SCc1ccccc1)c1ccc(Cl)cc1

>  <EXPERIMENTAL SYSTEM>
OVCAR-4 ovarian

>  <GI50>
3240 nM

$$$$
>  <COMPOUND>
CCN1C(=O)N(c2ccccc2)C2NC(=S)N(/N=C/C=C/c3ccccc3OC)C21 (stereo unspecified)

>  <EXPERIMENTAL SYSTEM>
OVCAR-4 ovarian

>  <GI50>
263 nM

$$$$
>  <COMPOUND>
CCCCCCCCCCCCCCCC[N+](C)(C)Cc1ccccc1

>  <EXPERIMENTAL SYSTEM>
OVCAR-4 ovarian

>  <GI50>
1590 nM

$$$$
